Every entry's value here was drawn from patent US4661516A.

# System: L1210 cells
# assay details: In vivo anti-tumor activity, L1210, single i.p. injection
# Set-up: species or system BDF1 mice
# particulars: single i.p., 50 mg/kg
property label: % T/C (%)

molecule=NC1CCCCC1N.O=C1O[C@H]([C@@H](O)C(=O)[O-])[C@H](O)[C@H]1O.O=C1O[C@H]([C@@H](O)C(=O)[O-])[C@H](O)[C@H]1O.[Pt+2] measured_result=156
molecule="CCS(=O)(=O)[O-].CCS(=O)(=O)[O-].NC1CCCCC1N.O.[Pt+2] (stereo not drawn) [Compound 31, Cis-bis-ethanesulfonato(DACH)Pt(II).H2 O]" measured_result=153
molecule=N[C@@H]1CCCC[C@H]1N.O=C1O[C@H]([C@@H](O)CO)C([O-])=C1O.O=C1O[C@H]([C@@H](O)CO)C([O-])=C1O.[Pt+2] measured_result=184
molecule="NC1CCCCC1N.O=C([O-])C1CC(O)CN1.O=C([O-])C1CC(O)CN1.[Pt+2] (mixture of isomers)" measured_result=170
molecule=NC1CCCCC1N.O.O.O=C([O-])CN(CC(=O)[O-])c1ccccc1.[Pt+2] measured_result=108
molecule=NC1CCCCC1N.O.O=C([O-])C1CCCCC1.O=C([O-])C1CCCCC1.[Pt+2] measured_result=140
molecule=O.O.O=C([O-])C[N-]CC(=O)O.[NH-]C1CCCCC1[NH-].[Pt] measured_result=163
molecule="NC1CCCCC1N.O.O.O=C([O-])C1=CC(O)C(O)C(O)C1.O=C([O-])C1=CC(O)C(O)C(O)C1.[Pt+2] (stereo not drawn) [Compound 10, cis-bis-shikimato(DACH)Pt(II).2H2 O]" measured_result=140
molecule="NC1CCCCC1N.O.O=C([O-])C1CCN1.O=C([O-])C1CCN1.[Pt+2] (stereo not shown)" measured_result=161
molecule="NC1CCCCC1N.O.O=C1OC(C(O)CO)C([O-])=C1O.O=C1OC(C(O)CO)C([O-])=C1O.[Pt+2] (stereo not drawn) [Compound 3, cis-bis-ascorbato(DACH)Pt(II).1H2 O]" measured_result=125
molecule=NC1CCCCC1N.O=C([O-])CN(CC(=O)[O-])Cc1ccccc1.[Pt+2] measured_result=158
